Target: CDK4/cyclin D3 (Homo sapiens, UniProt P11802)
Construct: purchased Carna Biosciences, Inc. QS S Assist CDK4/Cyclin D3_FP Kit
Sequence (P11802 whole entry): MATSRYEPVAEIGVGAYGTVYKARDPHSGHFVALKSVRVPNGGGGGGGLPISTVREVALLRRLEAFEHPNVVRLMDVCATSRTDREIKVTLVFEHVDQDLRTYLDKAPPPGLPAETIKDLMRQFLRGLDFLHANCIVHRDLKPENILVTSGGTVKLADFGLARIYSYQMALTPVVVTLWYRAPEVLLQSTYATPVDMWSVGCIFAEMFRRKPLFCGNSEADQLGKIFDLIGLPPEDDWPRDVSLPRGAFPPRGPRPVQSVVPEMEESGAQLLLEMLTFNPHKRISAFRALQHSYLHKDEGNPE
Sequence (P30281 whole entry partner): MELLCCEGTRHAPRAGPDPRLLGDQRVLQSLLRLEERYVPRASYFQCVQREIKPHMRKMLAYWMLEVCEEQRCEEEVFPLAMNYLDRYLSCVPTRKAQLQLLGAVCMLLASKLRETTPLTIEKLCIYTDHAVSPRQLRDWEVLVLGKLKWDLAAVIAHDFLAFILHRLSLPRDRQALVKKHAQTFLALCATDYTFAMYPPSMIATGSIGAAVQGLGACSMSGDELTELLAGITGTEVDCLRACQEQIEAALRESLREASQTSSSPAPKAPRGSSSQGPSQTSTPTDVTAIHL
Test: Human CDK4/cyclin D3 inhibitory activity (QS S Assist CDK4/Cyclin D3_FP Kit, IMAP fluorescence polarization)
Type: biochemical
Conditions: 50% inhibitory concentration against CDK4/cyclin D3, given as class symbol
pIC50: −log10 of the molar value.
readoutType: pIC50

[[record]]
molecule = "CCNc1nc([C@@H](C)O)cc2cnc(Nc3ccc(CN4CCN(C(C)CO)CC4)cn3)nc12 (single isomer, unassigned) [Compound 1089]"
studysystem = "CDK4/cyclin D3 (Homo sapiens, UniProt P11802)"
val = "> 8.00"

[[record]]
molecule = "CC(C)Nc1nc([C@@H](C)O)cc2cnc(Nc3ccc(N4CCN(CC(=O)N5CCOCC5)CC4)nn3)nc12"
studysystem = "CDK4/cyclin D3 (Homo sapiens, UniProt P11802)"
val = "> 8.00"

[[record]]
molecule = "CO[C@H](C)c1cc2cnc(Nc3ccc(OC4CCNCC4)cn3)nc2c(N[C@H]2CCCOC2)n1"
studysystem = "CDK4/cyclin D3 (Homo sapiens, UniProt P11802)"
val = "> 8.00"

[[record]]
molecule = "CC(C)Nc1nc([C@@H](C)O)c(Cl)c2cnc(Nc3ccc(N4CCC(OCC(=O)O)CC4)nn3)nc12"
studysystem = "CDK4/cyclin D3 (Homo sapiens, UniProt P11802)"
val = "7.00 to 8.00"

[[record]]
molecule = "CC(C)Nc1nc(C(C)O)cc2cnc(Nc3ccc(OC4CNCC4F)cn3)nc12 (stereo not drawn)"
studysystem = "CDK4/cyclin D3 (Homo sapiens, UniProt P11802)"
val = "> 8.00"

[[record]]
molecule = "CO[C@H](C)c1cc2cnc(Nc3ccc(CN4CCN(CC#N)CC4)cn3)nc2c(NC(C)C)n1"
studysystem = "CDK4/cyclin D3 (Homo sapiens, UniProt P11802)"
val = "7.00 to 8.00"

[[record]]
molecule = "CO[C@H](C)c1cc2cnc(Nc3ccc(NC(=O)C4CCCCN4)cn3)nc2c(NC(C)C)n1 (stereo partly drawn)"
studysystem = "CDK4/cyclin D3 (Homo sapiens, UniProt P11802)"
val = "> 8.00"

[[record]]
molecule = "CCNc1nc([C@@H](C)O)cc2cnc(Nc3ccc4c(n3)CCN(CCO)C4)nc12"
studysystem = "CDK4/cyclin D3 (Homo sapiens, UniProt P11802)"
val = "7.00 to 8.00"

[[record]]
molecule = "CO[C@H](C)c1cc2cnc(Nc3ccc4c(n3)CCN(C(=O)CO)C4)nc2c(N[C@H]2CC[C@H](O)CC2)n1"
studysystem = "CDK4/cyclin D3 (Homo sapiens, UniProt P11802)"
val = "> 8.00"

[[record]]
molecule = "CO[C@H](C)c1cc2cnc(Nc3ccc(CN4CCNC[C@@H]4C)cn3)nc2c(NC(C)C)n1"
studysystem = "CDK4/cyclin D3 (Homo sapiens, UniProt P11802)"
val = "> 8.00"

[[record]]
molecule = "CO[C@H](C)c1cc2cnc(Nc3ccc(N4CCCC(C(=O)O)C4)cn3)nc2c(NC(C)C)n1 (stereo partly drawn)"
studysystem = "CDK4/cyclin D3 (Homo sapiens, UniProt P11802)"
val = "7.00 to 8.00"

[[record]]
molecule = "CNC1CC2(C1)CN(c1ccc(Nc3ncc4cc([C@@H](C)OC)nc(N[C@H]5CCCOC5)c4n3)nc1)C2"
studysystem = "CDK4/cyclin D3 (Homo sapiens, UniProt P11802)"
val = "> 8.00"

[[record]]
molecule = "CC(C)Nc1nc(C2(C)COC2)cc2cnc(Nc3ccc(N4CCNCC4)nn3)nc12"
studysystem = "CDK4/cyclin D3 (Homo sapiens, UniProt P11802)"
val = "> 8.00"

[[record]]
molecule = "CO[C@H](C)c1cc2cnc(Nc3ccc(CN4CCNCC4)cn3)nc2c(NCC(C)C)n1"
studysystem = "CDK4/cyclin D3 (Homo sapiens, UniProt P11802)"
val = "> 8.00"

[[record]]
molecule = "CCNc1nc([C@@H](C)O)cc2cnc(Nc3cc(C)c(CN4CCN(CCO)CC4)cn3)nc12"
studysystem = "CDK4/cyclin D3 (Homo sapiens, UniProt P11802)"
val = "7.00 to 8.00"

